# Target Desc: NMDA receptor complex, glycine co-agonist site (Rattus norvegicus)
# Construct: Crude synaptic membranes used in the assay were prepared using rat hippocampal tissue; from tissue; host or cells: rat hippocampus, crude synaptic membranes
# Assay type: biochemical
# Condition Notes: 10^-5 M peptide; rat hippocampus membranes; in the presence of 7-chlorokynurenic acid; ± S.E.M.
No end group written: not given here.
Could you please report measured [3H]MK-801 binding, percentage of control binding for the items listed next?
Give the value in % but do not write % after it.

Entry QQHYS [NT-12, Gln-Gln-His-Tyr-Ser] has what [3H]MK-801 binding, percentage of control binding?
106

Entry FTISSVQAELDLAVYYSQQHYSTPPT [NT-7] has what [3H]MK-801 binding, percentage of control binding?
100

Entry EDLAVYYSQQHYSTPPT [NT-5] has what [3H]MK-801 binding, percentage of control binding?
112

----------
# Target Desc: NMDA receptor complex, glycine co-agonist site (Rattus norvegicus)
# Construct: Crude synaptic membranes used in the assay were prepared using rat hippocampal tissue; from tissue; host or cells: rat hippocampus, crude synaptic membranes
# Type: biochemical
# Condition Notes: 10^-6 M peptide; rat hippocampus membranes; in the presence of 7-chlorokynurenic acid; ± S.E.M.
No end group written: not given here.
Assay Metric: [3H]MK-801 binding, percentage of control binding

NMDA receptor complex, glycine co-agonist site (Rattus norvegicus) / [3H]MK-801 binding, percentage of control binding / VYYSQQHYSTPPT [NT-4] : value?
110 ± 1%

NMDA receptor complex, glycine co-agonist site (Rattus norvegicus) / [3H]MK-801 binding, percentage of control binding / QQHYSTPPTFGGG [NT-8] : value?
107 ± 6%

NMDA receptor complex, glycine co-agonist site (Rattus norvegicus) / [3H]MK-801 binding, percentage of control binding / QQHYS [NT-12, Gln-Gln-His-Tyr-Ser] : value?
106 ± 9%

NMDA receptor complex, glycine co-agonist site (Rattus norvegicus) / [3H]MK-801 binding, percentage of control binding / QQHYSTPPTFGGGTKLE [NT-9] : value?
112 ± 10%

NMDA receptor complex, glycine co-agonist site (Rattus norvegicus) / [3H]MK-801 binding, percentage of control binding / SQQHYSTPPTS [NT-11] : value?
120 ± 11%

NMDA receptor complex, glycine co-agonist site (Rattus norvegicus) / [3H]MK-801 binding, percentage of control binding / FTISSVQAELDLAVYYSQQHYSTPPT [NT-7] : value?
104 ± 0%

NMDA receptor complex, glycine co-agonist site (Rattus norvegicus) / [3H]MK-801 binding, percentage of control binding / SVQAELDLAVYYSQQHYSTPPT [NT-6] : value?
96 ± 1%

NMDA receptor complex, glycine co-agonist site (Rattus norvegicus) / [3H]MK-801 binding, percentage of control binding / EDLAVYYSQQHYSTPPT [NT-5] : value?
106 ± 2%
